Molecular target: rat TAAR1 (Rattus norvegicus)
Construct: expressed in transfected cells; host or cells: HEK293 (ATCC # CRL-1573), stably transfected with pIRESneo2 expression plasmid
Experiment: TAAR1 radioligand binding with [3H]-rac-2-(1,2,3,4-tetrahydro-1-naphthyl)-2-imidazoline, membranes of stably transfected HEK293 cells
Conditions: second value of the cell, read-out: Ki (μM) mouse/rat: rat
MEASUREMENT NAME: Ki (µM)

MOLECULE | Ki [µM]
NC1=N[C@@H](CCc2ccc(NC(=O)c3cnc(Cl)c(Cl)c3)cc2)CO1 [Example 109] | 0.0016
NC1=N[C@@H](CCc2ccc(NC(=O)c3cc(Cl)cc(Cl)n3)cc2)CO1 [Example 158] | 0.0006
CC(C(=O)Nc1ccc(CC[C@H]2COC(N)=N2)cc1)c1ccc(Cl)cc1 (stereo partly drawn) [Example 58] | 0.0007
NC1=N[C@@H](CCc2ccc(NC(=O)c3ncc(C(F)(F)F)cc3Cl)cc2)CO1 [Example 101] | 0.0021

1 = NC1=N[C@@H](CCc2ccc(NC(=O)c3ccc(F)cc3)cc2)CO1 [Example 16]
2 = CC[C@@H](C[C@H]1COC(N)=N1)c1ccc(NC(=O)Nc2ccc(F)cc2)cc1 [Example 12]
1 or 2 : whose Ki is greater? Answer with the label corresponding to your selection.
2

A = NC1=N[C@@H](CCc2ccc(NC(=O)c3cnc(C(F)(F)F)cn3)cc2)CO1 [Example 159]
B = NC1=N[C@@H](CCc2ccc(C(=O)Nc3ccc(Cl)cc3)cc2)CO1 [Example 48]
Look at A and B . Which one has the lower recorded Ki number? # respond with the chosen item's label
B
(B: 0.0003 µM, A: 0.0024 µM)

P = CCc1nc(OC)cc(C(=O)Nc2ccc(CC[C@H]3COC(N)=N3)cc2)n1 [Example 203]
Q = NC1=N[C@@H](CCc2ccc(NC(=O)c3ccc(Cl)nn3)cc2)CO1 [Example 122]
Identify the entry with the smaller Ki: P or Q . Selection: enter the item's label.
P

====

Molecular target: rat TAAR1 (Rattus norvegicus, UniProt Q923Y9)
Construct: expressed in transfected cells; host or cells: HEK293 (ATCC # CRL-1573), stably transfected with pIRESneo2 expression plasmid
Sequence (Q923Y9 whole entry): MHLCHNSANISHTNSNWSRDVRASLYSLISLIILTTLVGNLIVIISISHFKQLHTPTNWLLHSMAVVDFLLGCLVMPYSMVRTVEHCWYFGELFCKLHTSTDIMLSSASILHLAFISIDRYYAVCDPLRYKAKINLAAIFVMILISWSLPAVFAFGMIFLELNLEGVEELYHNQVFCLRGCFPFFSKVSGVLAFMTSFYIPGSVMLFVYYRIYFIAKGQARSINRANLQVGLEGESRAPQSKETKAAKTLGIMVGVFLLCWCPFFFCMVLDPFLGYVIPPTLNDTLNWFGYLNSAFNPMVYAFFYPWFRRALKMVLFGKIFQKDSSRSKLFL
Test: TAAR1 radioligand binding with [3H]-rac-2-(1,2,3,4-tetrahydro-1-naphthyl)-2-imidazoline, membranes of stably transfected HEK293 cells
Details: second value of the cell, read-out: Ki (μM) mouse/rat: rat
MEASUREMENT NAME: Ki (µM)

COMPOUND | Ki (µM)
NC1=N[C@@H](CCc2ccc(NC(=O)c3ccc(OCC(F)(F)F)nc3)cc2)CO1 [Example 113] | 0.001
NC1=N[C@@H](CCc2ccc(NC(=O)c3ccc(Cl)cn3)cc2)CO1 [Example 33] | 0.001
CC(C)(C(=O)Nc1ccc(CC[C@H]2COC(N)=N2)cc1)c1ccc(Cl)cc1 [Example 72] | 0.001

====

Molecular target: mouse TAAR1 (Mus musculus)
Construct: expressed in transfected cells; host or cells: HEK293 (ATCC # CRL-1573), stably transfected with pIRESneo2 expression plasmid
Sequence (Q923Y8 whole entry): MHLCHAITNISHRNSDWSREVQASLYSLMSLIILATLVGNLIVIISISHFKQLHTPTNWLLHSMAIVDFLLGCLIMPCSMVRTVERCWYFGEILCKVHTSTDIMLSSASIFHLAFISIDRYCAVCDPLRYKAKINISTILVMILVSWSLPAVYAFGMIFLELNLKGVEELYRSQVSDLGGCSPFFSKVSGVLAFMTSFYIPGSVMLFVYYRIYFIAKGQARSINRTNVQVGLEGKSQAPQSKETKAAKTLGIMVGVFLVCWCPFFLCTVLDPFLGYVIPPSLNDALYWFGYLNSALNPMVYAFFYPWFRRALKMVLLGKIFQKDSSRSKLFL
Assay: TAAR1 radioligand binding with [3H]-rac-2-(1,2,3,4-tetrahydro-1-naphthyl)-2-imidazoline, membranes of stably transfected HEK293 cells
Conditions: first value of the cell, read-out: Ki (μM) mouse/rat: mouse
MEASUREMENT NAME: Ki (µM)

Reference set, count: 3
COMPOUND | Ki [µM]
NC1=N[C@@H](CCc2ccc(NC(=O)c3cnc(C(F)(F)F)cn3)cc2)CO1 [Example 159] | 0.001
NC1=N[C@@H](CCc2ccc(C(=O)Nc3ccc(Cl)cc3)cc2)CO1 [Example 48] | 0.001
NC1=N[C@@H](CCc2ccc(NC(=O)c3cncc(F)c3)cc2)CO1 [Example 100] | 0.004

A = CC(C)c1cc(C(=O)Nc2ccc(CC[C@H]3COC(N)=N3)cc2)ccn1 [Example 198]
B = CC(C(=O)Nc1ccc(CC[C@H]2COC(N)=N2)cc1)c1ccc(Cl)cc1 (some centres unmarked) [Example 58]
# compare Ki for A vs B ; return the one with the smaller value Please reply using the label of the selected record.
B
